- System: Escherichia coli TOP10
- protocol: shrunken log2 fold change of peptide-encoding DNA abundance (4.5 h post-induction vs induction); higher = less antimicrobial activity (less host growth inhibition)
- measurement context: time post-induction: 4.5 h; library: site-saturation at positions 5, 18, 19, 20
attribute measured: shrunken log2 fold change

{"columns": ["record sequence", "result"],
 "data": [
  ["RRIRHRPPRLPRPRPRPELPPRP", -0.056],
  ["RRIRDRPPRLPRPRPRPIQRPRP", -0.01],
  ["RRIRTRPPRLPRPRPRPDHMPRP", -0.109],
  ["RRIRRRPPRLPRPRPRPKGYPRP", 0.172],
  ["RRIRFRPPRLPRPRPRPVVQPRP", -0.119],
  ["RRIRQRPPRLPRPRPRPMVWPRP", -0.0183]
]}

stdin: Give its shrunken log2 fold change value. Item: "RRIRCRPPRLPRPRPRPDANPRP"
stdout: -0.00199

stdin: Give its shrunken log2 fold change value. Item: "RRIRWRPPRLPRPRPRPANFPRP"
stdout: 0.106

----------
- System: Escherichia coli TOP10
- protocol: shrunken log2 fold change of peptide-encoding DNA abundance (4.5 h post-induction vs induction); higher = less antimicrobial activity (less host growth inhibition)
- measurement context: time post-induction: 4.5 h; library: site-saturation at positions 5, 18, 19, 20
attribute measured: shrunken log2 fold change

Completed entries (count: 5):
{"columns": ["record sequence", "shrunken log2 fold change"],
 "data": [
  ["RRIRMRPPRLPRPRPRPRDQPRP", 0.776],
  ["RRIRIRPPRLPRPRPRPILDPRP", -0.797],
  ["RRIRRRPPRLPRPRPRPHYLPRP", -0.156],
  ["RRIRIRPPRLPRPRPRPWSSPRP", -0.1],
  ["RRIRARPPRLPRPRPRPIQYPRP", -0.463]
]}

stdin: Give its shrunken log2 fold change value. Item: "RRIRSRPPRLPRPRPRPHQFPRP"
stdout: -0.124

stdin: Give its shrunken log2 fold change value. Item: "RRIRYRPPRLPRPRPRPMIVPRP"
stdout: -0.209

stdin: Give its shrunken log2 fold change value. Item: "RRIRYRPPRLPRPRPRPMIYPRP"
stdout: -0.0142

stdin: Give its shrunken log2 fold change value. Item: "RRIRARPPRLPRPRPRPYFCPRP"
stdout: -0.346

stdin: Give its shrunken log2 fold change value. Item: "RRIRIRPPRLPRPRPRPAAYPRP"
stdout: -0.919

stdin: Give its shrunken log2 fold change value. Item: "RRIRWRPPRLPRPRPRPICRPRP"
stdout: -0.0371

----------
- Test system: Escherichia coli TOP10
- protocol: shrunken log2 fold change of peptide-encoding DNA abundance (4.5 h post-induction vs induction); higher = less antimicrobial activity (less host growth inhibition)
- measurement context: time post-induction: 4.5 h; library: site-saturation at positions 5, 18, 19, 20
Output t for shrunken log2 fold change not less than -0.1; output f otherwise.

{"columns": ["record sequence", "tested on", "group label"],
 "data": [
  ["RRIRSRPPRLPRPRPRPFYVPRP", "Escherichia coli TOP10", "f"],
  ["RRIRSRPPRLPRPRPRPAPKPRP", "Escherichia coli TOP10", "t"],
  ["RRIRSRPPRLPRPRPRPFWMPRP", "Escherichia coli TOP10", "f"],
  ["RRIRHRPPRLPRPRPRPMHKPRP", "Escherichia coli TOP10", "t"],
  ["RRIRHRPPRLPRPRPRPLCYPRP", "Escherichia coli TOP10", "f"],
  ["RRIRIRPPRLPRPRPRPVKCPRP", "Escherichia coli TOP10", "t"],
  ["RRIRARPPRLPRPRPRPSHAPRP", "Escherichia coli TOP10", "t"],
  ["RRIRHRPPRLPRPRPRPHDWPRP", "Escherichia coli TOP10", "t"],
  ["RRIRVRPPRLPRPRPRPAWAPRP", "Escherichia coli TOP10", "t"],
  ["RRIRKRPPRLPRPRPRPWPVPRP", "Escherichia coli TOP10", "t"]
]}

stdin: hey, is shrunken log2 fold change for this one >= -0.1? "RRIRLRPPRLPRPRPRPLFNPRP"
stdout: f

stdin: hey, is shrunken log2 fold change for this one >= -0.1? "RRIRTRPPRLPRPRPRPGFIPRP"
stdout: f

stdin: hey, is shrunken log2 fold change for this one >= -0.1? "RRIRCRPPRLPRPRPRPASIPRP"
stdout: f

stdin: hey, is shrunken log2 fold change for this one >= -0.1? "RRIRPRPPRLPRPRPRPQLNPRP"
stdout: t

stdin: hey, is shrunken log2 fold change for this one >= -0.1? "RRIRSRPPRLPRPRPRPHWRPRP"
stdout: t

stdin: hey, is shrunken log2 fold change for this one >= -0.1? "RRIRTRPPRLPRPRPRPITLPRP"
stdout: f

----------
- Tested on: Escherichia coli TOP10
- protocol: shrunken log2 fold change of peptide-encoding DNA abundance (4.5 h post-induction vs induction); higher = less antimicrobial activity (less host growth inhibition)
- measurement context: time post-induction: 4.5 h; library: site-saturation at positions 5, 18, 19, 20
attribute measured: shrunken log2 fold change
Format: numeric value only, no unit, no commentary.

{"columns": ["record sequence", "attribute measured", "measured number"],
 "data": [
  ["RRIRGRPPRLPRPRPRPKIMPRP", "shrunken log2 fold change", 0.322],
  ["RRIRPRPPRLPRPRPRPSPYPRP", "shrunken log2 fold change", -0.461],
  ["RRIRMRPPRLPRPRPRPEFSPRP", "shrunken log2 fold change", 1.51],
  ["RRIRVRPPRLPRPRPRPYETPRP", "shrunken log2 fold change", 0.0231],
  ["RRIRGRPPRLPRPRPRPHSDPRP", "shrunken log2 fold change", 0.204]
]}

stdin: Give its shrunken log2 fold change value. Item: "RRIRIRPPRLPRPRPRPIPKPRP"
stdout: -0.0993

stdin: Give its shrunken log2 fold change value. Item: "RRIRDRPPRLPRPRPRPPRYPRP"
stdout: 0.244

stdin: Give its shrunken log2 fold change value. Item: "RRIRRRPPRLPRPRPRPYQPPRP"
stdout: -0.00931

stdin: Give its shrunken log2 fold change value. Item: "RRIRSRPPRLPRPRPRPTHAPRP"
stdout: 0.368

stdin: Give its shrunken log2 fold change value. Item: "RRIRIRPPRLPRPRPRPGAYPRP"
stdout: -0.33

stdin: Give its shrunken log2 fold change value. Item: "RRIRARPPRLPRPRPRPQWHPRP"
stdout: -0.0862

stdin: Give its shrunken log2 fold change value. Item: "RRIRFRPPRLPRPRPRPNEIPRP"
stdout: 0.232

stdin: Give its shrunken log2 fold change value. Item: "RRIRWRPPRLPRPRPRPAETPRP"
stdout: 0.0775

stdin: Give its shrunken log2 fold change value. Item: "RRIRVRPPRLPRPRPRPSGWPRP"
stdout: 0.16

stdin: Give its shrunken log2 fold change value. Item: "RRIRPRPPRLPRPRPRPVSGPRP"
stdout: 0.584

----------
- Tested on: Escherichia coli TOP10;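 also: peptides expressed intracellularly from a pBAD plasmid library in pooled LB shake-flask culture, induced with 0.3% L-arabinose, DNA abundance read by NGS, three biological replicates, DESeq2 with apeglm shrinkage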
- protocol: shrunken log2 fold change of peptide-encoding DNA abundance (4.5 h post-induction vs induction); higher = less antimicrobial activity (less host growth inhibition)
- measurement context: time post-induction: 4.5 h; library: site-saturation at positions 5, 18, 19, 20
Listed below: shrunken log2 fold change values for each entry.
Format: numeric value only, no unit, no commentary.

Completed entries (count: 3):
{"columns": ["record sequence", "shrunken log2 fold change"],
 "data": [
  ["RRIRPRPPRLPRPRPRPTQCPRP", -0.194],
  ["RRIRLRPPRLPRPRPRPFRHPRP", -0.322],
  ["RRIRGRPPRLPRPRPRPFWGPRP", 0.289]
]}

stdin: Find shrunken log2 fold change (Escherichia coli TOP10) for the entry "RRIRKRPPRLPRPRPRPVINPRP"
stdout: -0.0513

stdin: Find shrunken log2 fold change (Escherichia coli TOP10) for the entry "RRIRYRPPRLPRPRPRPKMCPRP"
stdout: 0.00281

stdin: Find shrunken log2 fold change (Escherichia coli TOP10) for the entry "RRIRFRPPRLPRPRPRPIWSPRP"
stdout: 0.0199

stdin: Find shrunken log2 fold change (Escherichia coli TOP10) for the entry "RRIRLRPPRLPRPRPRPCEQPRP"
stdout: 0.0377

stdin: Find shrunken log2 fold change (Escherichia coli TOP10) for the entry "RRIRQRPPRLPRPRPRPYRKPRP"
stdout: -0.0156

stdin: Find shrunken log2 fold change (Escherichia coli TOP10) for the entry "RRIRPRPPRLPRPRPRPWQMPRP"
stdout: 0.0571

stdin: Find shrunken log2 fold change (Escherichia coli TOP10) for the entry "RRIRSRPPRLPRPRPRPETHPRP"
stdout: 0.0531

stdin: Find shrunken log2 fold change (Escherichia coli TOP10) for the entry "RRIRMRPPRLPRPRPRPMKCPRP"
stdout: 0.0208

stdin: Find shrunken log2 fold change (Escherichia coli TOP10) for the entry "RRIRCRPPRLPRPRPRPYHPPRP"
stdout: -0.539

stdin: Find shrunken log2 fold change (Escherichia coli TOP10) for the entry "RRIRIRPPRLPRPRPRPVCHPRP"
stdout: -0.179

stdin: Find shrunken log2 fold change (Escherichia coli TOP10) for the entry "RRIRCRPPRLPRPRPRPYPCPRP"
stdout: 0.00458
